target: Proprotein convertase subtilisin/kexin type 9 (Homo sapiens); experiment: Inhibition of PCSK9 transcription in human HepG2 cells at 5 uM by AlphaLISA method; assay type: cell-based
Attribute: inhibition
Give a bare numeral; the unit % is implied.

>  <structure-as-smiles>
C=C1[C@@H](OC(C)=O)[C@H]2[C@@H](OC(C)=O)[C@](C)(OC(C)=O)C[C@]2(OC(C)=O)C(=O)[C@H](C)/C=C/C(C)(C)C(=O)[C@@H](OC(=O)C(C)C)[C@H]1OC(=O)C(C)C

>  <measured-result>
30.4

$$$$
>  <structure-as-smiles>
C=C1[C@@H](OC(C)=O)[C@H]2[C@@H](OC(C)=O)[C@@H](C)C[C@]2(OC(C)=O)C(=O)[C@H](C)/C=C/C(C)(C)C(=O)C[C@H]1OC(C)=O

>  <measured-result>
36.4

$$$$
>  <structure-as-smiles>
C=C1[C@@H](OC(C)=O)[C@H]2[C@@H](OC(C)=O)[C@](C)(OC(C)=O)C[C@]2(OC(C)=O)C(=O)[C@H](C)[C@]2(C)O[C@H]2C(C)(C)[C@H](OC(C)=O)[C@@H](OC(C)=O)[C@H]1OC(=O)C(C)C

>  <measured-result>
1.2

$$$$
>  <structure-as-smiles>
C=C1[C@@H](OC(C)=O)[C@H]2[C@@H](OC(C)=O)[C@](C)(OC(=O)Cc3ccccc3)C[C@]2(OC(C)=O)C(=O)[C@H](C)/C=C/C(C)(C)[C@H](OC(=O)c2cccnc2)C[C@H]1OC(=O)C(C)C

>  <measured-result>
56.1

$$$$
>  <structure-as-smiles>
C=C1[C@@H](OC(C)=O)[C@H]2[C@@H](OC(C)=O)[C@](C)(OC(C)=O)C[C@]2(OC(C)=O)C(=O)[C@H](C)/C=C/C(C)(C)C(=O)[C@@H](OC(=O)C(C)C)[C@H]1OC(=O)CC

>  <measured-result>
28

$$$$
>  <structure-as-smiles>
C=C1[C@@H](OC(C)=O)[C@H]2[C@@H](OC(C)=O)[C@](C)(OC(C)=O)C[C@]2(OC(C)=O)C(=O)[C@H](C)[C@]2(C)O[C@H]2C(C)(C)[C@H](OC(C)=O)[C@@H](OC(=O)C(C)C)[C@H]1OC(=O)C(C)C

>  <measured-result>
0.1

$$$$
>  <structure-as-smiles>
C=C1[C@@H](OC(C)=O)[C@H]2[C@@H](OC(C)=O)[C@](C)(OC(C)=O)C[C@]2(OC(C)=O)C(=O)[C@H](C)/C=C/C(C)(C)C(=O)[C@@H](OC(C)=O)[C@H]1OC(=O)C(C)C

>  <measured-result>
22.3

$$$$
>  <structure-as-smiles>
C=C1[C@@H](OC(C)=O)[C@H]2[C@@H](OC(C)=O)[C@](C)(OC(C)=O)C[C@]2(OC(C)=O)C(=O)[C@H](C)[C@]2(C)O[C@H]2C(C)(C)[C@H](OC(C)=O)[C@@H](OC(=O)c2ccccc2)[C@H]1OC(=O)C(C)C

>  <measured-result>
0.7

$$$$

Lab note: C=C1[C@@H](OC(C)=O)[C@H]2[C@@H](OC(C)=O)[C@@H](C)C[C@]2(OC(C)=O)C(=O)[C@H](C)/C=C/C(C)(C)[C@H](OC(C)=O)[C@@H](OC(C)=O)[C@H]1OC(C)=O gave inhibition of 0.1

Lab note: C=C1[C@@H](OC(C)=O)[C@H]2[C@@H](OC(C)=O)[C@@H](C)C[C@]2(OC(C)=O)C(=O)[C@H](C)/C=C/C(C)(C)[C@H](OC(=O)c2ccccc2)[C@@H](OC(C)=O)[C@H]1OC(C)=O gave inhibition of 3.1

Lab note: C=C1[C@@H](OC(C)=O)[C@H]2[C@@H](OC(C)=O)[C@@H](C)C[C@]2(OC(C)=O)C(=O)[C@H](C)/C=C/C(C)(C)C(=O)C[C@H]1OC(=O)C(C)C gave inhibition of 35.7

Lab note: C=C1[C@@H](OC(C)=O)[C@H]2[C@@H](OC(C)=O)[C@@H](C)C[C@]2(OC(C)=O)C(=O)[C@H](C)/C=C/C(C)(C)[C@H](O)C[C@H]1OC(=O)C(C)C gave inhibition of 5.7

Lab note: C=C1[C@@H](OC(C)=O)[C@H]2[C@@H](OC(=O)[C@@H](C)CC)[C@@H](C)C[C@]2(OC(C)=O)C(=O)[C@H](C)/C=C/C(C)(C)[C@H](OC(C)=O)[C@@H](OC(C)=O)[C@H]1OC(C)=O gave inhibition of 56.1
